Biological target: c-Rel protein (Homo sapiens)
Test: Electrophoretic Mobility Shift Assay (EMSA), c-Rel binding to CD28RE oligonucleotide
Conditions: 10 nM c-Rel protein
pIC50: −log10 of the molar value.
ASSAY_READOUT: pIC50

[[record]]
smiles_input = "CCCCCCCOc1ccc2cc3c(=O)[nH]c(=O)nc-3oc2c1Cl"
assay_target = "c-Rel protein (Homo sapiens)"
assay_readout = "pIC50"
test_result = "> 6.30"

[[record]]
smiles_input = "CCOc1cc2oc3nc(=O)[nH]c(=O)c-3cc2cc1F"
assay_target = "c-Rel protein (Homo sapiens)"
assay_readout = "pIC50"
test_result = "> 6.30"

[[record]]
smiles_input = "COc1ccc2cc3c(=O)[nH]c(=S)nc-3oc2c1"
assay_target = "c-Rel protein (Homo sapiens)"
assay_readout = "pIC50"
test_result = "> 6.30"


Okay, here is my list. What is pIC50 for each of these?
1. COCCOCCCOc1ccc2cc3c(=O)[nH]c(=O)nc-3oc2c1F
2. CCCc1cc2oc3nc(=O)[nH]c(=O)c-3cc2cc1Cl
3. CCOc1ccc2cc3c(=O)[nH]c(=O)nc-3oc2c1
4. CCCCn1c(=O)nc2oc3cc(OCC)ccc3cc-2c1=O

Data returned:
1. > 6.00
2. > 6.00
3. > 6.00
4. > 6.00

---

For each of the compounds below, state its pIC50.
Test system: MCF-7
Assay: CellTiter-Glo IG50, Example 8, MCF-7
Type: cell-based
Conditions: Homo sapiens, MCF7, MCF-7, 72 hours
pIC50: −log10 of the molar value.

[[record]]
compound = "Nc1ccn([C@@H]2O[C@H](CO)[C@@H](O)C2(F)F)c(=O)n1 [Gemcitabine, gemcitabine, reference compound]"
test_result = "< 4.80"

[[record]]
compound = "CC(C)CCCOc1cc2oc3nc(=O)[nH]c(=O)c-3cc2cc1F [IT-839]"
test_result = "< 4.80"


So, COCCCCOc1ccc2cc3c(=O)[nH]c(=O)nc-3oc2c1Cl [IT-878] ? Its pIC50 was < 4.80

---

Test system: HCT116
Test: CellTiter-Glo IG50, Example 8, HCT116
Assay type: cell-based
Conditions: Homo sapiens, HCT-116, HCT116, 72 hours
ASSAY_READOUT: IC50

[[record]]
smiles_input = "CC(C)CCCOc1cc2oc3nc(=O)[nH]c(=O)c-3cc2cc1F"
assay_target = "HCT116"
test_result = "> 16 µM"


Okay, here is my list. What is IC50 for each of these?
1. COCCCCOc1ccc2cc3c(=O)[nH]c(=O)nc-3oc2c1Cl
2. CCCCCCOc1ccc2cc3c(=O)[nH]c(=O)nc-3oc2c1Cl

Data returned:
1: > 16 µM; 2: > 16 µM

---

For each of the molecules below, state its pIC50.
Target: c-Rel protein (Homo sapiens, UniProt Q04864)
Sequence (Q04864 whole entry): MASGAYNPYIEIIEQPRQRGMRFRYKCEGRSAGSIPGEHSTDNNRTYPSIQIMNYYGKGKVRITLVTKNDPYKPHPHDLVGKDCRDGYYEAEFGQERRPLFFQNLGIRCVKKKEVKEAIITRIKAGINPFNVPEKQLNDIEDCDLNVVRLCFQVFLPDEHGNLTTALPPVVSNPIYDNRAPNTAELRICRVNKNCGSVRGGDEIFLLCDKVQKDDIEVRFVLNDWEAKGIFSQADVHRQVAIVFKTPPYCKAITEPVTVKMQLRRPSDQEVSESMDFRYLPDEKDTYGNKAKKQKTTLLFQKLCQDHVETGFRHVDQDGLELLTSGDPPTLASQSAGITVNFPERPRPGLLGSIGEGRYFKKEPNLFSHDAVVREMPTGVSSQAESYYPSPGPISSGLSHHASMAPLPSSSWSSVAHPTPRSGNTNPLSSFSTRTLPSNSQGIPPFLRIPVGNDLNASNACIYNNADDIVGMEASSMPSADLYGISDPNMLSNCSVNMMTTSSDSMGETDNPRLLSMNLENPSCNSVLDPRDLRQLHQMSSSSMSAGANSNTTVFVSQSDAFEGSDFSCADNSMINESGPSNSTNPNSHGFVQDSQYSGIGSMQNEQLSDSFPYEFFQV
pIC50: −log10 of the molar value.

[[record]]
molecule = "CCCOc1ccc2cc3c(=O)[nH]c(=O)nc-3oc2c1 [compound 19]"
assay_readout = "pIC50"
test_result = "> 6.00"


Okay, here is my list. What is pIC50 for each of these?
1. O=C(O)CCCCOc1ccc2cc3c(=O)[nH]c(=O)nc-3oc2c1Cl [compound 54]
2. CCCCCOc1ccc2cc3c(=O)[nH]c(=O)nc-3oc2c1Cl [compound 39]
3. COCCOCCOc1ccc2cc3c(=O)[nH]c(=O)nc-3oc2c1F [compound 63]

Data returned:
> 5.30
> 6.30
> 6.00

Okay, here is my list. What is pIC50 for each of these?
1. CC(=O)OCCCCOc1ccc2cc3c(=O)[nH]c(=O)nc-3oc2c1 [compound 51]
2. CC(C)(C)COc1cc2oc3nc(=O)[nH]c(=O)c-3cc2cc1F [compound 36]
3. CCCCOc1ccc2cc3c(=O)[nH]c(=O)nc-3oc2c1 [compound 50]
4. COCCOCCCOc1cc2oc3nc(=O)[nH]c(=O)c-3cc2cc1F [compound 75]

Data returned:
1. > 6.00
2. > 6.30
3. > 6.00
4. > 6.00
